target: A*24:02 (human), P04439; assay: ProImmune REVEAL MHC class I-peptide binding assay
Assign REVEAL score at 0 h to each entry below.

// REVEAL score at 0 h value for HWTEAKMLL (modifications not checked) : 103

// REVEAL score at 0 h value for CHATFTMRL (modifications not checked) : 75.9

// REVEAL score at 0 h value for LMCHATFTM (modifications not checked) : 99.5

// REVEAL score at 0 h value for GEAAAIFMT (modifications not checked) : 58.9

// REVEAL score at 0 h value for WTEAKMLLD (modifications not checked) : 94.7

// REVEAL score at 0 h value for VGTYGLNTF (modifications not checked) : 96

// REVEAL score at 0 h value for YFHRRDLRL (modifications not checked) : 87.5
